# measurement notes: xn = mol fraction of the nth substance listed
# experimental setup: 298.15 K; 101 kPa; x1 = 0.4
observation type: viscosity (mPa·s)
Expressed in mPa·s, but write only the number.

So what does the record say about viscosity for CS(C)=O + CC#N ?
0.687

Data request, read-out viscosity, for CS(C)=O + Cc1ccccc1
0.867

I am curious: what viscosity value has been reported for CCCCC + COC(C)=O ?
0.257

Find the recorded viscosity belonging to CS(C)=O + O and report it.
3.799

// viscosity lookup, key: CS(C)=O + CO
0.942

----------
Please provide measured viscosity for the entries that follow.
# measurement notes: xn = mol fraction of the nth substance listed
# experimental setup: 303.15 K; 100 kPa; x2 = 0.7
Form entry: value (mPa·s) — number only.

Which viscosity reading was recorded for the compound OC1CCCCC1 + OC1CCCC1 ?
12.51

Entry under review: CC(=O)CC(C)(C)O + CC(C)O . Reported viscosity?
1.84

Could you tell me which viscosity is on file for CCCCCCCO + COC(=O)OC ?
0.869

Requested field: viscosity. Item: CC(=O)CC(C)(C)O + O
4.57
